experiment: in vitro; conditions: rat, gh3-tre-luc cells, AC50 (uM) modified / 1000, Tox21_110001=Tox21_200578; viability, 1 nM T3 present, 24 h
Quantity Measured: CC50 at 24 h

> print(dat)
                      molecule  meas.value
1  CCN [Ethylammonium nitrate]     > 90 µM

###

experiment: in vitro; conditions: rat, gh3-tre-luc cells, AC50 (uM) modified / 1000
CC50 at 24 h overview
Quantity Measured: CC50 at 24 h

> print(dat)
                                    compound  quantity.measured  meas.value
 1  Cc1ccc(C(=O)c2ccccc2)cc1 [4-Methylbenzophenone]       CC50 at 24 h     > 90 µM
 2               CCCCC(=O)O [Pentanoic acid]       CC50 at 24 h     > 90 µM
 3                 CCCCCCCCCCC=O [Undecanal]       CC50 at 24 h     > 90 µM
 4  CN1C(=O)[C@@H](NC(=O)c2cc3ccccc3[nH]2)N=C(c2ccccc2)c2ccccc21 [Devazepide]       CC50 at 24 h     > 50 µM
 5  CC(=O)O[Si](C)(OC(C)=O)OC(C)=O [Methylsilanetriyl triacetate]       CC50 at 24 h     > 90 µM
 6  CC(C)/N=c1\cc2n(-c3ccc(Cl)cc3)c3ccccc3nc-2cc1Nc1ccc(Cl)cc1 [Clofazimine]       CC50 at 24 h     5.75 µM
 7  CCCCCCCCCC[N+](C)(C)CCCCCCCCCC [Didecyldimethylammonium chloride]       CC50 at 24 h     10.7 µM
 8                  C=CC(=O)O [Acrylic acid]       CC50 at 24 h     > 50 µM
 9  CSc1nc(NC2CC2)nc(NC(C)(C)C)n1 [Cybutryne]       CC50 at 24 h     > 90 µM
10    c1ccc(CSCc2ccccc2)cc1 [Benzyl sulfide]       CC50 at 24 h     > 90 µM
11  Cc1cccc2c1cc1ccc3cccc4ccc2c1c34 [7-Methylbenzo(a)pyrene]       CC50 at 24 h     > 90 µM
12  Cc1[nH]nc2c1N=C(c1ccccc1Cl)c1cc([N+](=O)[O-])ccc1N2 [PharmaGSID_48505]       CC50 at 24 h     39.4 µM
13  S=C=NCCc1ccccc1 [Phenethyl isothiocyanate]       CC50 at 24 h     79.7 µM
14  Cc1ccc2c(c1)C(=O)OC2=O [4-Methylphthalic anhydride]       CC50 at 24 h     > 90 µM
15  Cc1ccc([N+](=O)[O-])cc1S(=O)(=O)O [2-Methyl-5-nitrobenzenesulfonic acid]       CC50 at 24 h     > 90 µM
16  Cn1c(CCCC(=O)O)nc2cc(N(CCCl)CCCl)ccc21 [Bendamustine]       CC50 at 24 h     > 50 µM
17  CCc1cc(C(C)(C)C)c(O)c(C(C)(C)C)c1 [2,6-Di-tert-butyl-4-ethylphenol]       CC50 at 24 h     72.5 µM
18  O=C(Cl)c1cc(C(=O)Cl)cc(C(=O)Cl)c1 [1,3,5-Benzenetricarbonyl trichloride]       CC50 at 24 h       80 µM
19  Clc1ccc(C(Cl)(Cl)Cl)cc1Cl [1,2-Dichloro-4-(trichloromethyl)benzene]       CC50 at 24 h     > 90 µM
20                   C1COCO1 [1,3-Dioxolane]       CC50 at 24 h     > 90 µM
